All figures here come from patent US20250170090A1.

Test system: human oral keratinocytes (HOK)
protocol details: CCK-8 cell viability: alleviation of proliferative toxicity of anti-tumor agents on HOK (Table 8-2)
Format: cell-based
measurement conditions: Infigratinib (15 μM), NO-NSAID 100 μM
Procedure: Experiments were conducted using various epithelial cells: Examples 47-51 used human immortalized keratinocytes (HaCaT) with corresponding results in Table 8-1; Examples 52-56 used human oral keratinocytes (HOK) with results in Table 8-2; Examples 57-61 used gastric epithelial cells (GES-1) with results in Table 8-3; Examples 62-66 used human intestinal epithelial cells (FHs 74 Int) with results in Table 8-4. […]
Decision: Response rate % (average) compared against 20%; not below it gives Yes, below it gives No.

Use these answered entries as a reference point.
compound: CC(C)Cc1ccc(C(C)C(=O)OCO/N=[N+](\[O-])N(C)C)cc1 (centres unmarked) [Compound A4]
assigned label: No
//
compound: CC(=O)Oc1ccccc1C(=O)Oc1cccc(CO[N+](=O)[O-])c1 [Compound A2]
assigned label: Yes
//
compound: CC(=O)Oc1ccccc1C(=O)OCOC(=O)CCCCCO[N+](=O)[O-] [Compound A3]
assigned label: No
//
compound: CC(C(=O)OCCCO[N+](=O)[O-])c1ccc(-c2ccccc2)c(F)c1 (centres unmarked) [Compound A1]
assigned label: No

Moving on to the next compound.
*Q* I'd appreciate it if you could say whether COc1ccc2cc(C(C)C(=O)OCCCCO[N+](=O)[O-])ccc2c1 (centres unmarked) [Compound A5] has Response rate % (average) at least equal to 20%.
*A* No
